The measured values listed here are drawn from patent US7157453B2.

This section presents compounds with their documented melting point values.

Consider the worked cases shown below.
For the compound CC(C)(C)OC(=O)NCCCCn1c(-c2ccccc2)nc2c(N)nc3ccccc3c21 [Example 12] , what melting point is on record?
182 to 183 °C

Request the reported melting point associated with CCCc1nc2c(N)nc3ccccc3c2n1CCCCNC(=O)Nc1ccccc1 [Example 160]
182.8 to 184 °C

# melting point lookup, item CCCCNC(=O)NCCCn1c(CCCC)nc2c(N)nc3ccccc3c21 [Example 150]
185.5 to 186.4 °C

---
# melting point lookup, item CCCCNC(=O)NCCCn1c(CCOC)nc2c(N)nc3ccccc3c21 [Example 162]
159 to 160 °C

Requested read-out: melting point. Entry: COCCc1nc2c(N)nc3ccccc3c2n1CCCNC(=O)OC(C)(C)C [Example 148]
174.2 to 175.8 °C

What value of melting point has been reported for the following compound? CCc1nc2c(N)nc3ccccc3c2n1CCCCNC(=O)Nc1ccccc1 [Example 143]
179.7 to 181.4 °C

Consider the compound Nc1nc2ccccc2c2c1ncn2CCCCNC(=O)Oc1ccc2ccccc2c1 and give its measured melting point.
154 to 155 °C

So what's the measured melting point for this one? Nc1nc2ccccc2c2c1ncn2CCCCNC(=O)Oc1cccc2ccccc12
89 to 92 °C

# get_value(readout='melting point', item= CN(C(=O)NCCCCn1cnc2c(N)nc3ccccc3c21)c1ccccc1 [Example 6] )
87 to 88 °C
